Target: T1, mouse LTBP3-proTGFβ1 complex (mouse, UniProt Q61810 41-1245; P04202 30-390, limits assumed)
T1 construct: Exemplary entries; also called Mo LTBP3-proTGFβ1; Murine LTBP3 proTGFb1
T1 sequence (Q61810 other isoform, or with tags, fused parts or gaps limits assumed, chain 1 of 2): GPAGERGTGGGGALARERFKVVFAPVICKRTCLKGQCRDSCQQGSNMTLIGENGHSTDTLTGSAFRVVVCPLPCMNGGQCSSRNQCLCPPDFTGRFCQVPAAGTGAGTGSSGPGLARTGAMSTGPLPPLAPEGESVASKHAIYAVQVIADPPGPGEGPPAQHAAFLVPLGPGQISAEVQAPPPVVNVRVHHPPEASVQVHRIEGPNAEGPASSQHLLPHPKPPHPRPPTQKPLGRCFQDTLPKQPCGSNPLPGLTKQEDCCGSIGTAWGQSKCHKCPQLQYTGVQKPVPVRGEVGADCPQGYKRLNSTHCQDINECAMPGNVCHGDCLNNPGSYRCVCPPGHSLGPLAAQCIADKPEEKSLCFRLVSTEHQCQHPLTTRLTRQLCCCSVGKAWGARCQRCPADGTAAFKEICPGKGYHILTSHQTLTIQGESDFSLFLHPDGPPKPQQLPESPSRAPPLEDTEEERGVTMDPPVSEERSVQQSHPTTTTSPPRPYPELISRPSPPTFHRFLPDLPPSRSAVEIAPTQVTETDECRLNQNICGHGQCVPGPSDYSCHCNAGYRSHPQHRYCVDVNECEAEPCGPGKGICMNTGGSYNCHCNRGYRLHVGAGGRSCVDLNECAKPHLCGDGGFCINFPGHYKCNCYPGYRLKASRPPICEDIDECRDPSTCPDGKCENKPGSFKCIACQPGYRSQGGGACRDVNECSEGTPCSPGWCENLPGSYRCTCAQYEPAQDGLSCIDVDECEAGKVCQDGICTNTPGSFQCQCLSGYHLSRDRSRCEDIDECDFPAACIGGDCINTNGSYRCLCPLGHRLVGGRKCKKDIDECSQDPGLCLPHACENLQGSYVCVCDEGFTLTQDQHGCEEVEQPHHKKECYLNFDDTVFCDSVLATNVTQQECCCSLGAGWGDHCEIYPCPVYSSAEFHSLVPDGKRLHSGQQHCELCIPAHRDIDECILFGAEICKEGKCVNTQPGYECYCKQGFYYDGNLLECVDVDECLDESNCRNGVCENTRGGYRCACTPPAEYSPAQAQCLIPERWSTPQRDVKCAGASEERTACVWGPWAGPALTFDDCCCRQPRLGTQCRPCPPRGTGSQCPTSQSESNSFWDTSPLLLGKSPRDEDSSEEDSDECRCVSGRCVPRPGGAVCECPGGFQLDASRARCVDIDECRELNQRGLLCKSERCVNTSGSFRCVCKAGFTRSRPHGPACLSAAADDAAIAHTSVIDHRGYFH
T1 sequence (P04202 30-390 limits assumed, chain 2 of 2): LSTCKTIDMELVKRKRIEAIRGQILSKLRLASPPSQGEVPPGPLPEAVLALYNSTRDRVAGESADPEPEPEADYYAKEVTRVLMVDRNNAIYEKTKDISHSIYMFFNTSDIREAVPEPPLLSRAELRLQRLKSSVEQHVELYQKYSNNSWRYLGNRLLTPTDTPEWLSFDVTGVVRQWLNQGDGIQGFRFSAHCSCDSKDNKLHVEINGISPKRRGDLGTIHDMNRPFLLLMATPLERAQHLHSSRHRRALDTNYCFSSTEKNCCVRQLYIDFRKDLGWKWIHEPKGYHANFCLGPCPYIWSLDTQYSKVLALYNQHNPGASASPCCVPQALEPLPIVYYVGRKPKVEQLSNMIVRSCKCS
Assay: Octet BLI, IgG captured
Protocol: Binding affinities of the optimized antibodies were measured by Octet against human LTBP1-proTGFβ1, human LTBP3-proTGFβ1, mouse LTBP1-proTGFβ1, mouse LTBP3-proTGFβ1, and GARP-proTGFβ1 complexes, essentially as described in Example 6. […] The antigens were allowed to associate for 3 minutes followed by a 5-minute dissociation. Kinetics buffer (ForteBio®) was used throughout the experiment, and KD was determined using a 1:1 fitting model for each antibody antigen pair.
measurement label: pKd
For clarity, pKd is expressed as the negative log10 of concentration in mol/L.

Solved cases below.
SR-AB45 (antibody, IgG1, V domains shown, Cycle 3, lineage SR-AB23) VH: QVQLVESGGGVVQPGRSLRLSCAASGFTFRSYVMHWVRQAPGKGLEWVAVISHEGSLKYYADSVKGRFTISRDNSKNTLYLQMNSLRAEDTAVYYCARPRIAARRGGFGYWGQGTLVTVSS VL: NFMLTQPHSVSESPGKTVTISCTRSSGAIDDNYVQWYQQRPGSSPTTVIYEDFQRPSGVPDRFSGSIDSSSNSASLTISGLKTEDEADYYCQSYDDDLQGVVFGGGTKLTVL    9.57
SR-AB34 (antibody, IgG1, V domains shown, Cycle 3, lineage SR-AB22) VH: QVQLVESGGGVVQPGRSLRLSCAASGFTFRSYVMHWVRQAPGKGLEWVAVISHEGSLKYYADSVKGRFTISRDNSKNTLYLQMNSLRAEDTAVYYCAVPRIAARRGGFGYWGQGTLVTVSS VL: NFMLTQPHSVSESPGKTVTISCTRSSGNIDNNYVQWYQQRPGSSPTTVIYEDNQRPSGVPDRFSGSIDSSSNSASLTISGLKTEDEADYYCQSYDYDAQGVVFGGGTKLTVL    9.35

From here, focus on the item given below.
[ask] Could you share which pKd value was measured for SR-AB39 (antibody, IgG1, V domains shown, Cycle 3, lineage SR-AB22) VH: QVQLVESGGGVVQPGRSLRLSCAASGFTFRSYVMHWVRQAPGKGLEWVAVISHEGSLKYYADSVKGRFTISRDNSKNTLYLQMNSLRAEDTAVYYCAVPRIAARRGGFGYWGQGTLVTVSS VL: NFMLTQPHSVSESPGKTVTISCTRSSGLIDDNYVQWYQQRPGSSPTTVIYEDAQRPSGVPDRFSGSIDSSSNSASLTISGLKTEDEADYYCQSYDHDEQGVVFGGGTKLTVL ?
[reply] 9.47
